target: T1, human platelet α2β1 integrin (immobilized on microtiter plates) (human, UniProt P17301 30-1181; P05556 21-798); assay: competition with Eu-TMC-2206 on human platelet α2β1-coated plate
T1 construct: plates custom-coated with human platelet α2β1 by GTI Inc; also called immobilized α2β1 integrin; α2β1-coated plates
T1 sequence (P17301 30-1181 E534K limits assumed, chain 1 of 2): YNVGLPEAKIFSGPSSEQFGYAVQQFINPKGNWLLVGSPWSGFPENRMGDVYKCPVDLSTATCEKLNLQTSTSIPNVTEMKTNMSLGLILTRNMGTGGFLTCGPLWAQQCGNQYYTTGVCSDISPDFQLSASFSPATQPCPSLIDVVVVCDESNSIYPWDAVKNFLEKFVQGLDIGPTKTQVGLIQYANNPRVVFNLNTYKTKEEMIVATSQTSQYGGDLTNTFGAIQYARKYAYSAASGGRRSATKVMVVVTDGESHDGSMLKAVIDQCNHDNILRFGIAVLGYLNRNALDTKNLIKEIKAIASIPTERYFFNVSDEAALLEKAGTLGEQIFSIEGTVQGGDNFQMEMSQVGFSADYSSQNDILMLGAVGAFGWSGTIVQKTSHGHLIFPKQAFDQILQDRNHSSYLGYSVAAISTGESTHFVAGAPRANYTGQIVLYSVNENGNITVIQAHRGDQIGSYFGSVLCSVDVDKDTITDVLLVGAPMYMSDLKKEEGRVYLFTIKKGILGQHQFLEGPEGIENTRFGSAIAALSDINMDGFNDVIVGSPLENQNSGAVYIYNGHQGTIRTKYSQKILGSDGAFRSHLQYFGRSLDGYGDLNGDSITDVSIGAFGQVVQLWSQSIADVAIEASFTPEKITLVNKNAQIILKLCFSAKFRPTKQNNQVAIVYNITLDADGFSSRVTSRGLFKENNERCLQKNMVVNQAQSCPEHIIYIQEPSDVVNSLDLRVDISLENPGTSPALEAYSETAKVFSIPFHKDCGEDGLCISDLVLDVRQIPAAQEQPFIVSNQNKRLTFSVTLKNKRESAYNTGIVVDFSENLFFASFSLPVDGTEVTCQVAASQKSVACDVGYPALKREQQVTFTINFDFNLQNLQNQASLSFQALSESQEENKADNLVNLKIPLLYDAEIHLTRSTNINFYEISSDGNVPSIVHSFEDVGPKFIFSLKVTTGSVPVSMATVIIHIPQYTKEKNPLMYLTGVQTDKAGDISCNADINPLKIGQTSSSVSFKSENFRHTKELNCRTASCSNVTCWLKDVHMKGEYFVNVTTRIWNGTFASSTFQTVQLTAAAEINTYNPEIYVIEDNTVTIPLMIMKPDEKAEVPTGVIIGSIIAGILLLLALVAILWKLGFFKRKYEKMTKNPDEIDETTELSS
T1 sequence (P05556 21-798 limits assumed, chain 2 of 2): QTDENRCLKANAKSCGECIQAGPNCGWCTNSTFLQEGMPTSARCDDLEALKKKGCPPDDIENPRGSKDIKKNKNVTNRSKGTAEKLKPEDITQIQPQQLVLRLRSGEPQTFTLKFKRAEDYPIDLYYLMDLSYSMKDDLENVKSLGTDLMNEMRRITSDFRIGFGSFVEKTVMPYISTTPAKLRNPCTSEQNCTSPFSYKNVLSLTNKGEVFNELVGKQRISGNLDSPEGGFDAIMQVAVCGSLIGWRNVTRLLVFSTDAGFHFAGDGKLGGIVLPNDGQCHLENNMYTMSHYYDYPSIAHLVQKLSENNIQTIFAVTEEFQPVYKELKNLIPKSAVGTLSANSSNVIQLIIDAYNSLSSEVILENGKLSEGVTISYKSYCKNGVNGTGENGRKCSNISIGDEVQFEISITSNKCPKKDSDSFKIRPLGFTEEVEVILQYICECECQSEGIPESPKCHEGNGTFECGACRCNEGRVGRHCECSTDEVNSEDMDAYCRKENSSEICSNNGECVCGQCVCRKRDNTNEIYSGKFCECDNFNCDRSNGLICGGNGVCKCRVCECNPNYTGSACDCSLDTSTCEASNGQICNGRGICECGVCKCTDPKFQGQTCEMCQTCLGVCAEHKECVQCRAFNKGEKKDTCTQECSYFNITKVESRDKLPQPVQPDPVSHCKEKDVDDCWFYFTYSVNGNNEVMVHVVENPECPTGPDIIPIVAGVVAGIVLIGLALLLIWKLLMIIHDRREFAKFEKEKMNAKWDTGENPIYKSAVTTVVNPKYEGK
Reported Property: Ki

>>> result("humanized TMC-2206 variant hVH1.0/hVL1.0 (antibody, human IgG1, V domains shown, human IgG1/κ constant regions; also called humanized prototype; first humanized prototype) VH: QVQLQESGPGLVKPSETLSLTCTVSGFSLTNYGIHWVRQPPGKGLEWLGVIWARGFTNYNSALMSRLTISKDNSKNQVSLKLSSVTAADTAVYFCARANDGVYYAMDYWGQGTLVTVSS VL: QFVLTQSPAFLSVTPGEKVTITCSANSSVNYIHWYQQKPDQAPKKWIYDTSKLASGVPSRFSGSGSGTDYTFTISSLEAEDAATYYCQQWTTNPLTFGQGTKVEIK")
"0.27 nM"
>>> result("mouse-human chimeric TMC-2206 antibody (wild type chimera) (antibody, human IgG1, V domains shown, murine VH and VL on human IgG1 Fc and human κ constant region; also called wt chimera) VH: QVQLKESGPGLVAPSQSLSITCTVSGFSLTNYGIHWVRQPPGKGLEWLGVIWARGFTNYNSALMSRLIITKDNSQSQVFLKMNSLQPDDSATYFCARANDGVYYAMDYWGQGTSVTVSS VL: QFVLTQSPAFLSASPGEKVTMTCSANSSVNYIHWYQQKSGTSPKKWIYDTSKLASGVPVRFSGSGSGTSYSLTISSMETEDAATYYCQQWTTNPLTFGAGTRVELK")
"0.26 nM"
>>> result("humanized TMC-2206 variant hVH14.0/hVL12.0Q (antibody, human IgG1, V domains shown, human IgG1/κ constant regions; also called VH 14.0 VL 12.0Q) VH: QVQLQESGPGLVKPSETLSLTCTVSGFSLTNYGIHWIRQPPGKGLEWLGVIWARGFTNYNSALMSRVTISKDNSKNQVSLKLSSVTAADTAVYYCARANDGVYYAMDYWGQGTLVTVSS VL: DFVMTQSPAFLSVTPGEKVTITCSAQSSVNYIHWYQQKPDQAPKKLIYDTSKLASGVPSRFSGSGSGTDFTFTISSLEAEDAATYYCQQWTTNPLTFGQGTKVEIK")
"0.33 nM"
>>> result("humanized TMC-2206 variant hVH12.0/hVL10.0 (antibody, human IgG1, V domains shown, human IgG1/κ constant regions; also called VH 12.0 VL 10.0) VH: QVQLQESGPGLVKPSETLSLTCTVSGFSLTNYGIHWIRQPPGKGLEWLGVIWARGFTNYNSALMSRLTISKDNSKNQVSLKLSSVTAADTAVYYCARANDGVYYAMDYWGQGTLVTVSS VL: DFVMTQSPAFLSVTPGEKVTITCSANSSVNYIHWYQQKPDQAPKKLIYDTSKLASGVPSRFSGSGSGTDYTFTISSLEAEDAATYYCQQWTTNPLTFGQGTKVEIK")
"0.29 nM"
>>> result("humanized TMC-2206 variant hVH14.0/hVL10.0 (antibody, human IgG1, V domains shown, human IgG1/κ constant regions; also called VH 14.0 VL 10.0) VH: QVQLQESGPGLVKPSETLSLTCTVSGFSLTNYGIHWIRQPPGKGLEWLGVIWARGFTNYNSALMSRVTISKDNSKNQVSLKLSSVTAADTAVYYCARANDGVYYAMDYWGQGTLVTVSS VL: DFVMTQSPAFLSVTPGEKVTITCSANSSVNYIHWYQQKPDQAPKKLIYDTSKLASGVPSRFSGSGSGTDYTFTISSLEAEDAATYYCQQWTTNPLTFGQGTKVEIK")
"0.32 nM"
